Experiment: GSK_TCAKS: pIC50 HepG2 human cell line viability assay using luminiscence. […] Seeding density was checked to ensure that new mono-layers were not more than 50% confluent at the time of harvesting. Cell suspension was added to 500 mL of the same medium at a final density of 1.2 * 10^5 cells/mL. This cell suspension was dispensed (25 uL, 3000 cells per well) into 384-well clear-bottom plates using a Multidrop Combi dispenser. Prior to addition of the cell suspension, the screening compounds (250 nL) were pre-dispensed into the plates with an Echo liquid handler. Plates were incubated for 48 h at 37C, 5% CO2. After incubation, plates equilibrated at room temperature for 30 min before proceeding to develop the luminescent signal. The signal developer, CellTiter-Glo Reagent, was allowed to equilibrate at room temperature for 30 min and added to the plates (25uL per well) using a Multidrop Combi dispenser. Plates were left for 10 min at room temperature for stabilization and then read using a ViewLux.
Type: toxicity, cell-based
recorded-metric: IC50 at 48 h (µM)
Respond with the bare value in µM.

[
  {
    "molecule": "Cc1cn[nH]c1C1CCCN(Cc2nc3ccccc3n2C)C1 (centres undefined)",
    "recorded-result": 50.1
  },
  {
    "molecule": "Cc1c(C(=O)NCCCCn2ccnc2)oc2c(C)cccc12",
    "recorded-result": 79.4
  },
  {
    "molecule": "O=C(NCC(c1cccs1)N1CCOCC1)c1ccc([N+](=O)[O-])o1 (centres undefined)",
    "recorded-result": 20
  },
  {
    "molecule": "COc1ccc(CNc2cc(C3CC3)nc(-c3nccn3C)n2)cc1",
    "recorded-result": 25.1
  },
  {
    "molecule": "Fc1ccc(O[C@H]2C[C@H](NCc3cccc4cn[nH]c34)C2)cc1C(F)(F)F",
    "recorded-result": 25.1
  },
  {
    "molecule": "COc1ccc(Oc2ccc(C(C)N(C)c3ncc4c(N)nc(N)nc4n3)cc2)cc1 (centres undefined)",
    "recorded-result": 39.8
  }
]

// recorded IC50 at 48 h for O=C(Nc1nc2ccccc2[nH]1)c1ccc2[nH]cnc2c1 : 50.1

Reported IC50 at 48 h of COc1ccc(Cl)cc1CC(=O)Nc1nnc(-c2ccccn2)[nH]1 : 31.6

The molecule listed as Cc1nn(-c2nc(N)nc(-c3ccccn3)n2)c(N)c1-c1ccccc1 has a reported IC50 at 48 h of 63.1

The measured IC50 at 48 h associated with COc1ccc(OC)c(NC(=O)c2ccc([N+](=O)[O-])o2)c1 reads 20

O=C(Nc1nc(-c2ccccn2)cs1)c1ccc(S(=O)(=O)N2CCCCC2)cc1 yielded IC50 at 48 h of 63.1

Memo: NCc1ccc2c(Cl)cc(Cl)c(O)c2n1 , reported IC50 at 48 h: 25.1

Sure, the documented IC50 at 48 h for Cc1cc2nc(CN(C)Cc3ncccc3C)[nH]c2cc1C is 39.8

Recorded result, O=C(c1cc2cc(Cl)ccc2[nH]1)N1CCCCC1c1cccnc1 (centres undefined) , IC50 at 48 h: 39.8

According to the records, this molecule CC(C)Nc1nc(Cl)nc2ccccc12 displays IC50 at 48 h of 39.8

get_value(item= CN(Cc1nc2ccc(C(=O)NCC3CCCCC3)cc2[nH]1)C1CCCc2cccnc21 (centres undefined) , readout=IC50 at 48 h) returns 15.8
